Values compiled from patent US10457710B2.

- System: clinical strains of E. coli
- ASSAY_DETAILS: MIC, microdilution, clinical strains
- Assay type: cell-based
- SETTINGS: Escherichia coli strain 1; microdilution, Muller Hinton broth-cation adjusted, 0.02% BSA, 0.2% acetic acid
Where a SMILES comes first, the peptide text is derived from it. [ ]: non-standard residue; d: D form.
Rule: yes for Minimum inhibitory concentration not less than 2, no for anything less.

Examples with answers:
COMPOUND: CC[C@@H](C)[C@@H](NC(=O)[C@@H](CC(C)C)NC(=O)[C@@H](CCCNC(=N)N)NC(=O)[C@H](N)CCCNC(=N)N)C(=O)N[C@H](Cc1c[nH]c2ccccc12)C(=O)N[C@H](CCCNC(=N)N)C(=O)N[C@H](CCCNC(=N)N)C(=O)N[C@H](Cc1ccccc1)C(=O)N[C@H](CCCCN)C(=O)N[C@H](Cc1c[nH]c2ccccc12)C(=O)N[C@H](CC(C)C)C(=O)N[C@H](CCCNC(=N)N)C(=O)O [Chain204D] (H-[dR][dR][dL][dI][dW][dR][dR][dF][dK][dW][dL][dR]-OH)
CLASSIFICATION: yes
--
COMPOUND: CC[C@@H](C)[C@@H](N)C(=O)N[C@H](Cc1c[nH]c2ccccc12)C(=O)N[C@H](CCCCN)C(=O)N[C@H](CCCNC(=N)N)C(=O)N[C@H](Cc1ccccc1)C(=O)N[C@H](CCCNC(=N)N)C(=O)N[C@H](CC(C)C)C(=O)N[C@H](Cc1ccccc1)C(=O)N[C@H](CCCCN)C(=O)N[C@H](CCCCN)C(=O)N[C@H](Cc1c[nH]c2ccccc12)C(=O)O [Chain304D] (H-[dI][dW][dK][dR][dF][dR][dL][dF][dK][dK][dW]-OH)
CLASSIFICATION: no
--
COMPOUND: CC(C)C[C@@H](NC(=O)[C@H](N)CCCNC(=N)N)C(=O)N[C@H](CCCCN)C(=O)N[C@H](Cc1c[nH]c2ccccc12)C(=O)N[C@H](Cc1ccccc1)C(=O)N[C@H](Cc1c[nH]c2ccccc12)C(=O)N[C@H](CC(C)C)C(=O)N[C@H](Cc1ccccc1)C(=O)N[C@H](CCCNC(=N)N)C(=O)N[C@H](CCCCN)C(=O)N[C@H](CCCNC(=N)N)C(=O)O [Chain307D] (H-[dR][dL][dK][dW][dF][dW][dL][dF][dR][dK][dR]-OH)
CLASSIFICATION: yes
--
COMPOUND: CC(C)C[C@@H](NC(=O)[C@H](N)CCCNC(=N)N)C(=O)N[C@H](CCCCN)C(=O)N[C@H](Cc1c[nH]c2ccccc12)C(=O)N[C@H](Cc1ccccc1)C(=O)N[C@H](CC(C)C)C(=O)N[C@H](CC(C)C)C(=O)N[C@H](Cc1ccccc1)C(=O)N[C@H](CCCNC(=N)N)C(=O)N[C@H](CCCCN)C(=O)N[C@H](CCCNC(=N)N)C(=O)O [Chain308D] (H-[dR][dL][dK][dW][dF][dL][dL][dF][dR][dK][dR]-OH)
CLASSIFICATION: no
--
COMPOUND: CC(C)C[C@@H](NC(=O)[C@@H](CCCCN)NC(=O)[C@@H](Cc1c[nH]c2ccccc12)NC(=O)[C@@H](CCCCN)NC(=O)[C@@H](C)NC(=O)[C@@H](Cc1c[nH]cn1)NC(=O)[C@@H](CC(C)C)NC(=O)[C@@H](CCCNC(=N)N)NC(=O)[C@@H](Cc1c[nH]c2ccccc12)NC(=O)[C@H](N)Cc1c[nH]c2ccccc12)C(=O)N[C@H](Cc1c[nH]c2ccccc12)C(=O)O [Chain109D] (H-[dW][dW][dR][dL][dH][dA][dK][dW][dK][dL][dW]-OH)
CLASSIFICATION: yes
--
COMPOUND: CC(C)C[C@@H](NC(=O)[C@H](N)CCCNC(=N)N)C(=O)N[C@H](CCCCN)C(=O)N[C@H](CCCNC(=N)N)C(=O)N[C@H](Cc1c[nH]c2ccccc12)C(=O)N[C@H](CCCNC(=N)N)C(=O)N[C@H](CC(C)C)C(=O)N[C@H](Cc1ccccc1)C(=O)N[C@H](CCCNC(=N)N)C(=O)N[C@H](CCCCN)C(=O)N[C@H](CCCNC(=N)N)C(=O)O [Chain306D] (H-[dR][dL][dK][dR][dW][dR][dL][dF][dR][dK][dR]-OH)
CLASSIFICATION: no

Task item: Does the reported Minimum inhibitory concentration for CC(C)C[C@@H](NC(=O)[C@@H](Cc1c[nH]c2ccccc12)NC(=O)[C@@H](Cc1ccccc1)NC(=O)[C@@H](Cc1c[nH]c2ccccc12)NC(=O)[C@@H](CCCCN)NC(=O)[C@@H](CCCNC(=N)N)NC(=O)[C@H](N)Cc1c[nH]c2ccccc12)C(=O)N[C@H](Cc1ccccc1)C(=O)N[C@H](CCCCN)C(=O)N[C@H](CCCCN)C(=O)N[C@H](CCCNC(=N)N)C(=O)O [Chain309D] (H-[dW][dR][dK][dW][dF][dW][dL][dF][dK][dK][dR]-OH) fall at or above the 2 mark?
Reply: no

Task item: Entry CC[C@@H](C)[C@@H](NC(=O)[C@@H](Cc1c[nH]c2ccccc12)NC(=O)[C@H](N)CCCCN)C(=O)N[C@@H](C(=O)N[C@H](Cc1c[nH]c2ccccc12)C(=O)N[C@H](CCCNC(=N)N)C(=O)N[C@H](Cc1c[nH]c2ccccc12)C(=O)N[C@H](CCCNC(=N)N)C(=O)N[C@H](Cc1ccccc1)C(=O)N[C@H](CCCCN)C(=O)N[C@H](CCCNC(=N)N)C(=O)O)C(C)C [Chain201D] (H-[dK][dW][dI][dV][dW][dR][dW][dR][dF][dK][dR]-OH) please
Reply: yes

Task item: Entry CC(C)C[C@@H](NC(=O)[C@@H](CCCCN)NC(=O)[C@@H](CCCCN)NC(=O)[C@@H](Cc1ccccc1)NC(=O)[C@@H](CC(C)C)NC(=O)[C@@H](Cc1c[nH]c2ccccc12)NC(=O)[C@@H](CCCNC(=N)N)NC(=O)[C@@H](Cc1c[nH]c2ccccc12)NC(=O)[C@@H](CCCCN)NC(=O)[C@@H](CCCNC(=N)N)NC(=O)[C@H](N)CCCCN)C(=O)O [Chain310D] (H-[dK][dR][dK][dW][dR][dW][dL][dF][dK][dK][dL]-OH) please
Reply: yes
